Molecular target: h-TGR5 (Homo sapiens, UniProt Q8TDU6)
Construct: expressed in transfected cells
Sequence (Q8TDU6 1-330): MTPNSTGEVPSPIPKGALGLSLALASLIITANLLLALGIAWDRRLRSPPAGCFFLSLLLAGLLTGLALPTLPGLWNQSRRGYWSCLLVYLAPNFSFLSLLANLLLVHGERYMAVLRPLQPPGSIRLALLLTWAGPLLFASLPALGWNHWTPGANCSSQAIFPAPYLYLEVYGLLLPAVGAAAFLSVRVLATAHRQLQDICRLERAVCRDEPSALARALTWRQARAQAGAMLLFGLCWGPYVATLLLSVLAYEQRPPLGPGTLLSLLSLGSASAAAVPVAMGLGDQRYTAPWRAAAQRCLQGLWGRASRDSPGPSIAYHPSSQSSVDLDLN
Test: TGR5 cAMP Assay using Cisbio cAMP Dynamic2 htrf kit (hTGR5CRE-luc HEK 293 cells)
Format: cell-based
Conditions: h-TGR5 cAMP EC50, Table 1; read-out: cAMP (EC50)
Let's look at some molecules and their measured EC50.

Measured EC50, COc1cc(C(C)(C)c2c(Cl)nc(SCC3CCN(c4nnn[nH]4)CC3)n2-c2ccc(F)cc2)ccc1Cl : 1000 to 10000 nM

Measured EC50, COc1cc(-n2c(C(C)(C)c3ccc(F)c(C#N)c3)cnc2SCc2c(F)cc(C(=O)O)cc2F)ccc1F : < 100 nM

Measured EC50, COc1cc(C(C)(C)c2cnc(SCc3c(F)cc(OCC/C=N/NC(=N)N)cc3Cl)n2-c2ccc(F)cc2)ccc1Cl : < 100 nM

Measured EC50, CC(C)(c1ccc(S(N)(=O)=O)c(Cl)c1)c1cnc(SCc2ccc(F)cc2Cl)n1-c1ccc(F)cc1 : 100 to 1000 nM

Measured EC50, COc1cc(-n2c(C(C)(C)c3ccc(S(N)(=O)=O)c(Cl)c3)cnc2SCc2c(F)cc(C(=O)O)cc2F)ccc1F : < 100 nM

Measured EC50, COc1cc(C(C)(C)c2cnc(SCc3ccc(S(=O)(=O)NC(=O)NN4CCN(C)CC4)cc3Cl)n2-c2ccc(F)cc2)ccc1Cl : 100 to 1000 nM
